tested on: HL-60; assay: NCI tumour cell line growth inhibition, 48 h
Calls of active or inactive are those of the source. Rule as the data show it: active = GI50 up to about 1.1 µM and inactive = higher. Non-standard residues stand in square brackets, D forms with d. Residues, ends and D or L forms follow the SMILES beside them.
# output must be one of active, inactive

O=C(O)CNn1c(SCC(=O)O)nnc(/C=C/c2c(O)ccc3ccccc23)c1=O :: inactive
O=C(/C=C\c1cccc2ccccc12)c1cccs1 :: inactive
O=[N+]([O-])c1cc(CCl)ccc1CCl :: inactive
NC(CO)c1ccc(OCc2ccccc2)cc1 (stereo not drawn) :: inactive
Cc1ccc(S(=O)(=O)NC(=O)Nc2ccc(C(=O)O)cc2)cc1 :: inactive
CSCC[C@H](NC(=O)[C@@H](N)CC(N)=O)C(=O)N[C@@H](Cc1c[nH]c2ccccc12)C(=O)N[C@@H](CCC(N)=O)C(=O)N[C@@H](CCC(=O)O)C(=O)N[C@H](C(=O)NCC(=O)N[C@@H](CCCCN)C(=O)N[C@H](C)C(=O)O)C(C)C (H-NMWQEVGK[dA]-OH) :: inactive
C/C(=N\N=C(/S)N(C)C)c1cccnn1 :: active
COc1ccc(-c2cc(C(=O)Nc3cccc(C(F)(F)F)c3)nc(S)n2)cc1 :: inactive

// query Tell me the recorded outcome of this test for "CCOc1ccc2c(c1)[n+]([O-])c(-c1ccccc1Cl)c(N)[n+]2[O-]" .
// result inactive

// query // repeat for "CCOC(=O)c1ccc2nc(-c3ccc(S(=O)(=O)F)cc3)cc(O)c2c1" and report
// result inactive

// query Also check "C[N+](C)(CCNC(=O)c1cccc2cc3ccccc3nc12)Cc1ccc([N+](=O)[O-])s1"
// result inactive

// query Same read-out for "O=C1NCC2(CCNCC2)N1" ?
// result inactive

// query Next: CC(NC1CCCC[C@@H]1O)c1ccccc1 (stereo partly drawn)
// result inactive

// query Cool, now COc1ccc(C(C)NNC(=O)c2cc[n+]([BH2-]C#N)cc2)c(OC)c1 (stereo not drawn)
// result inactive

// query Check "Cc1ccccc1C(=O)c1c(O)c2c(c(O)c1Br)CCCC2" too.
// result inactive

// query Likewise for "CS(=O)(=O)c1nc(-c2cc3c(c(S(C)(=O)=O)n2)CCCC3)cc2c1CCCCC2" ?
// result inactive

// query Also CCC12CCCNC1c1c(n(C)c3ccccc13)C(C(=O)OC)C2 (stereo not drawn) ?
// result inactive
